Target: T1, human CD22, endogenous on Raji cells (human, UniProt P20273 20-847)
T1 construct: whole, on cells; Endogenous protein of the Raji cell line
T1 sequence (looked up): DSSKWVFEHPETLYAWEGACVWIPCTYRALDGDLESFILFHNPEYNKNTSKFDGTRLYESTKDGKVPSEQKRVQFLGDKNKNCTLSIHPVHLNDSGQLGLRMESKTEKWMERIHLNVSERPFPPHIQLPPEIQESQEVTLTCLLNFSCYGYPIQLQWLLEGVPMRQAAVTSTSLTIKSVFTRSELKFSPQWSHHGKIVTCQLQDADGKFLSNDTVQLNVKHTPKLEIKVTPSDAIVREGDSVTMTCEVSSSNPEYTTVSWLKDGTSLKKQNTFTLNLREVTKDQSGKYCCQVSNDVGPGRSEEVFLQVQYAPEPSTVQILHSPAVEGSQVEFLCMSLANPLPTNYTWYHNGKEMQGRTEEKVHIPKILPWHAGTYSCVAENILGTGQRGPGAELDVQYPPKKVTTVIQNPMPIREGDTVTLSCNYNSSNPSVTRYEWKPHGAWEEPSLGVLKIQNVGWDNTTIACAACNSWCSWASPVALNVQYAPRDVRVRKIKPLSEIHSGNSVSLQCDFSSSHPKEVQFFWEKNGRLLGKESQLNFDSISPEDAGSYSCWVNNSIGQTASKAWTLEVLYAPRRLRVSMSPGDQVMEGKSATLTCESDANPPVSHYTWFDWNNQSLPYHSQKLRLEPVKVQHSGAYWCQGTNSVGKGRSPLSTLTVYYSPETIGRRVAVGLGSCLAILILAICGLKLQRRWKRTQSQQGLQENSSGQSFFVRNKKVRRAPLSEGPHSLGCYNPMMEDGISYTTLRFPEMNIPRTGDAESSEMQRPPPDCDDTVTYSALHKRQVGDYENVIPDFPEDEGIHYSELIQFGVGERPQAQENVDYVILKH
Experiment: FACS, Raji cells
ASSAY_READOUT: EC50 (pM)
Dear colleague, please return just the value in pM, with no unit written.

The examples below pair each entry with its known result.
>>> endpoint_result("F1.60.9 human-murine chimeric antibody (antibody, human IgG1, kappa, V domains shown, Chimeric, human IgG1 / kappa) VH: QVQLKESGPGLVAPSQSLSITCTVSGLSLNNYGVSWVRQPPGKGLEWLGVIWGDGSTNYHSALISRLSISKDNSKSQVFLKLNSLHTDDTATYYCAINWGDYWGQGTTLIVSS VL: DIKMTQSPSSMNASLGERVTITCKASQDINSYLSWFQQKPGKSPKILIYRANRLIDGVPSRFSGSGSGQDYSLTISSLEYEDMGIYYCLQYGVFPLTFGAGTKLELKR")
290
>>> endpoint_result("F1.257.3 human-murine chimeric antibody (antibody, human IgG1, kappa, V domains shown, Chimeric, human IgG1 / kappa; VL tied by name) VH: QVQLQQSGPELARPGASVKLSCKASGYTFTSYGISWVKQRTGQDLEWIGEIYPKLGTTYYNEKFKDKATLTTDRSSSTAYMALRSLTSEDSAVYFCACPHYYATRGGDYWGQGTTLTVSS VL: EIVLTQSPATLSVTPGDSVTFSCRASQSISNHLHWYQQKSHESPRLLIRYASQSISGIPSRFSGSGSGTDFTLSLSSVETEDFGVYFCQQSHSWPYTFGGGTKLEIAR")
270
>>> endpoint_result("F1.267.9 human-murine chimeric antibody (antibody, human IgG1, kappa, V domains shown, Chimeric, human IgG1 / kappa; VL tied by name) VH: EVQLQQSGPVLVKPGASVKMSCKASGYTFTDFYMNWAKQSHGKSLEWVGVINPYNGGINYNQKFKGKATLTVDKSSSTAYMEFNSLTSEDSAVYYCARRMEYHAMDYWGQGTSVTVSS VL: DIVLTQSPASLAVSLGQRATISCRASESVDNYGFDFIHWYQQKPGQPPKLLIYRASNLESGIPARFSGSGSRPDFTLTINPVETDDVATYYCQQSIKDPWTFGGGTKLEIKR")
1660
>>> endpoint_result("F1.192.1 human-murine chimeric antibody (antibody, human IgG1, kappa, V domains shown, Chimeric, human IgG1 / kappa) VH: AVQLQQSGVELVRPGASVKLSCTGSDFNIKEDYIHWVKQRPEQGLEWIGWIDPENGDTEYASKFQGKATITADTSSNTAYLQLSSLTSEDTAVYYCATYGSLDYWGQGTTLTVSS VL: DIKMTQSPSSMYAFLGERVTITCKASQGINSFLTWFQQKPGKSPKTLIYRANRLVDGVPSRFSGSGSGQDYSLTISSLEYEDVGIYYCLQYDEFPRTFGGGTKLEIKR")
370
>>> endpoint_result("F1.200.11 human-murine chimeric antibody (antibody, human IgG1, kappa, V domains shown, Chimeric, human IgG1 / kappa) VH: QNQLVQSGPELKKPGETVKISCKASGYTFTTAGMQWVQKMPGKGFKWIGWINTLSGEPKYAEDFKGRFAFSLETSATTAYLQISNLKNEDTATYFCARAYYSNLYWYFDVWGTGTTVTVSS VL: DIVMTQSQKFMSTTVGDRVTITCKASQNVVTAVAWYQQKPGQSPKVLIYSASNRYSGVPDRFTGSGSGTDFTLTISNMHSEDLANYFCHQYSSYPFTFGSGTKLEIKR")
2410
>>> endpoint_result("F1.224.1 human-murine chimeric antibody (antibody, human IgG1, kappa, V domains shown, Chimeric, human IgG1 / kappa; VL tied by name) VH: EVLLHQSGPELVKPGASVKISCKASGYTFTDFNMDWVRQRHGQSLEWIGDVNPNNGGTIYNQKFKGKATLTVDKSSSTVYMDLRSLTSDDTAVYYCVRLGTSDYGEAWFISWGQGTVVTVSA VL: DIVLTQSPASLAVSLGQRATISCRASQSVSTPRYSFMHWYQQKPGQPPKLLIKYASNLESGFPARFTGSGSGTDFTLNIHPVEEEDTAAYYCQQSWAIPWTFGGGTKLEIKR")
650

**Query** Need EC50 of F1.17.1 human-murine chimeric antibody (antibody, human IgG1, kappa, V domains shown, Chimeric, human IgG1 / kappa) VH: QVQLKESGPGLVAPSQSLSITCTVSGFSLSRYTVHWVRQPPGKGLEWLGMIWGGGSTDYNSALKSRLSISKDNSKSQVFLKMNSLQTDDTAMYYCARPHDFDAGGFAYWGQGTLVTVSA VL: QIVLTQSPAILSTSPGEKVTMTCSASSRVNYMYWYQQKPGSSPRLLIYDTSNLASGVPVRFSGSGSGTSYSLTISRMEAEDAATYYCQQWTSYPLTFGAGTKLELKR , thanks.
**Result** 170

**Query** Give its EC50 value. Item: F1.280.1 human-murine chimeric antibody (antibody, human IgG1, kappa, V domains shown, Chimeric, human IgG1 / kappa) VH: QIQLVQSGPELKKPGETVKISCKASGYTFTTYGMSWVKQTPGKGLTWMGWINTDSGVPTYADDFKRRFAFSLEASATTAYLQINNLKNEDTATYFCARGGPDYWGQGTTLTVSS VL: DILLTQSPATLSVTPGETVSLSCRASQSIYKNLHWYHQKSHRSPRLLIKYASDSISGIPSRFTGSGSGTNFTLSINSVKPEDEGIYYCLQGYIVPLTFGAGTKLELKR
**Result** 500

# credit: patent US20240084003A1
